Just for reference, the supplement of paper PMC13380429 is where these values come from.

Test system: Vero E6 infected with SARS-CoV-2
Test: SARS-CoV-2 infection rate relative to infected DMSO; higher = more infection, active = 60 or less
Details: 24 h
In this section, each of the compounds is paired with its reported SARS-CoV-2 infection rate.

>  <compound>
Cc1cc(Nc2cc(CN3CCOCC3)c3nc(C)c(Cc4ccc(Cl)cc4F)n3n2)n[nH]1 (0.833333 µM)

>  <measured-metric>
SARS-CoV-2 infection rate

>  <observed-measurement>
107% (inactive)

$$$$
>  <compound>
O=C1Nc2ccccc2/C1=C1/Nc2ccccc2C1=O [indirubin] (10 µM)

>  <measured-metric>
SARS-CoV-2 infection rate

>  <observed-measurement>
99% (inactive)

$$$$
>  <compound>
C=CCNC(=O)c1cc([N+](=O)[O-])cc2c(=O)[nH]c(Nc3ccc(Cl)c(Cl)c3)nc12 (10 µM)

>  <measured-metric>
SARS-CoV-2 infection rate

>  <observed-measurement>
108% (inactive)

$$$$

Could you tell me which SARS-CoV-2 infection rate is on file for CN(c1nccc(=O)[nH]1)C1CCN(c2nc3ccccc3n2Cc2ccc(F)cc2)CC1 [mizolastine] (10 µM) ?
106% (inactive)

----------
Test system: Vero E6 infected with SARS-CoV-2
Assay: SARS-CoV-2 infection rate relative to infected DMSO; higher = more infection, active = 60 or less
Conditions: 24 h
In this section, each of the compounds is paired with its reported SARS-CoV-2 infection rate.
Respond numerically; units are % and should not be typed.

Query the reported SARS-CoV-2 infection rate for Vero E6 infected with SARS-CoV-2; item: N#CCC(=O)NN [cyacetacide] (10 µM)
102

Same question, CC1(C)CC(=O)C(C2C3=C(CC(C)(C)CC3=O)Oc3ccccc32)C(=O)C1 (stereo not drawn) (10 µM) this time
98

Same question, CC(=O)N(CC(O)CO)c1c(I)c(C(=O)NCCO)c(I)c(C(=O)NCC(O)CO)c1I (stereo not drawn) [ioxilan] (10 µM) this time
114

Same question, C=CC[C@]1(O)CC[C@H]2[C@@H]3CCC4=CC(=O)CCC4=C3C=C[C@@]21C [altrenogest] (10 µM) this time
105

Same question, CCN1CCN(C(=O)Cc2ccc(Nc3ncc(F)c(Nc4ccc(C(=O)Nc5ccccc5Cl)cc4)n3)cc2)CC1 [aurora-a-inhibitor-i] (10 µM) this time
86

Same question, O=C(OCCN1CCOCC1)C1(c2ccccc2)CCCCC1 (10 µM) this time
106

Same question, N#Cc1cc(CN2CCC(Nc3ncnc4sc(Cl)cc34)CC2)ccc1F (10 µM) this time
116

Same question, C[C@H]1c2cccc(O)c2C(=O)C2=C(O)[C@]3(O)C(=O)C(C(N)=O)=C(O)[C@@H](N(C)C)[C@@H]3[C@@H](O)[C@@H]21 [doxycycline] (10 µM) this time
97

----------
System: Vero E6 infected with SARS-CoV-2
Assay: inhibition of SARS-CoV-2 cytopathic effect; higher = more antiviral protection, active = above 15
Conditions: 8.33 nM; 48 h
measured-metric: inhibition of SARS-CoV-2 cytopathic effect (%)
Respond numerically; units are % and should not be typed.

Some molecules with recorded inhibition of SARS-CoV-2 cytopathic effect:
>  <molecule>
CC[C@H](CC[C@@H](C)[C@H]1CC[C@H]2[C@@H]3CC=C4C[C@@H](O[C@@H]5O[C@H](CO)[C@@H](O)[C@H](O)[C@H]5O)CC[C@]4(C)[C@H]3CC[C@]12C)C(C)C [daucosterol]

>  <observed-measurement>
-0.23

$$$$
>  <molecule>
CN(C)CC[C@@H](c1ccc(Cl)cc1)c1ccccn1 [chlorphenamine]

>  <observed-measurement>
1.98

$$$$
>  <molecule>
CC(C)n1cnc2c(NCCc3ccc(O)cc3)nc(-c3csc4ccccc34)nc21 [stemregenin-1]

>  <observed-measurement>
0.69

$$$$
>  <molecule>
COC(=O)C(c1ccccc1)C1CCCCN1 (stereo not drawn)

>  <observed-measurement>
-1.71

$$$$
>  <molecule>
C=CC1=C(C(=O)O)N2C(=O)[C@@H](NC(=O)/C(=N\O)c3csc(N)n3)[C@H]2SC1 [cefdinir]

>  <observed-measurement>
2.62

$$$$

Query the reported inhibition of SARS-CoV-2 cytopathic effect for Vero E6 infected with SARS-CoV-2; item: CN[C@H]1CN(c2ccc3c(=O)c(C(=O)O)cn(-c4nccs4)c3n2)C[C@@H]1OC [voreloxin]
-1.14

Same question, CCN(Cc1ccncc1)C(=O)C(CO)c1ccccc1 (stereo not drawn) [tropicamide] this time
4.91

Same question, C[C@]12CCC(=O)C[C@@H]1CC[C@@H]1[C@@H]2CC[C@]2(C)C=CC[C@@H]12 [androstenone] this time
-0.62
